Reference source for all entries: ChEMBL document CHEMBL5038628

Collected log10(clearance) values appear next to each entry.
Assay: Clearance in Sprague-Dawley rat plasma at 1 mg/kg, iv by LC-MS/MS analysis
Assay type: ADME, organism-based
Reminder: these figures are log10 of reported clearance, in mL/min/kg before transformation.

given_smiles: Cc1cc(F)c(NC(=O)Nc2ccnc(C(F)(F)F)c2)cc1-c1ccc2c(c1)OC1(CCOCC1)CC(=O)N2
recorded_measurement: 2.08

given_smiles: Cc1ccc(NC(=O)c2ccnc(OC(F)F)c2)cc1-c1ccc2c(c1)OC1(CCOCC1)CC(=O)N2
recorded_measurement: 1.22

given_smiles: Cc1ccc(NC(=O)c2cnnc(C(F)(F)F)c2)cc1-c1ccc2c(c1)OC1(CCOCC1)CC(=O)N2
recorded_measurement: 1.21

given_smiles: Cc1ccc(NC(=O)c2cc(C(F)(F)F)cnn2)cc1-c1ccc2c(c1)OC1(CCOCC1)CC(=O)N2
recorded_measurement: 0.86

Asked: GET /values?readout=log10(clearance)&item= "Cc1ccc(NC(=O)c2ccnc(C(F)(F)F)c2)cc1-c1ccc2c(c1)OC1(CCOCC1)CN(CCO)C2=O"
Given back: 1.61

Asked: Queued: "Cc1ccc(-c2nnc(-c3ccnc(C(F)(F)F)c3)[nH]2)cc1-c1ccc2c(c1)OC1(CCOCC1)CC(=O)N2"
Given back: 1.23

====

Biological target: RAF proto-oncogene serine/threonine-protein kinase (Homo sapiens)
Sequence (P04049 whole entry): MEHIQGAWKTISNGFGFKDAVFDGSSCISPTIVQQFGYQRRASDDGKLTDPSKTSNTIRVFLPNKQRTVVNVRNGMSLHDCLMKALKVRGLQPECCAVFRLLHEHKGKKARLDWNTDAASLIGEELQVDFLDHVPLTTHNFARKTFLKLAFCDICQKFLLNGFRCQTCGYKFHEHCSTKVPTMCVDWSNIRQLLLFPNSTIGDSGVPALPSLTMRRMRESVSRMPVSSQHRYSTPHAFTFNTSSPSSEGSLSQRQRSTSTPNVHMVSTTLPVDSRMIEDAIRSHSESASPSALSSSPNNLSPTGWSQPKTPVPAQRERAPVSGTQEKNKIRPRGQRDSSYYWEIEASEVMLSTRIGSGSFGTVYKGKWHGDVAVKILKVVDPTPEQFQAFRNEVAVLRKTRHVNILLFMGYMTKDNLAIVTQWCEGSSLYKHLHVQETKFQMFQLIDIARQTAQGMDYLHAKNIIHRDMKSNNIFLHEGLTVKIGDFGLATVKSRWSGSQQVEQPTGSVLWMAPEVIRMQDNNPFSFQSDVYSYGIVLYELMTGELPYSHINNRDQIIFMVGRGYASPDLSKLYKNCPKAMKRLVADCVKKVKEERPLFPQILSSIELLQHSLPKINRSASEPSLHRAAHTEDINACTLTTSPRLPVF
Assay: Inhibition of human recombinant cRAF measured after 60 mins by TR-FRET assay
So basically: is IC50 under 10 nM? Then true. Not under? Then false.

Reference set (7 entries):
molecule: Cc1ccc(NC(=O)c2ccnc(C(F)(F)F)c2)cc1-c1ccc2c(c1)OC1(CCOCC1)CN(CCN(C)C)C2=O
measured_target: RAF proto-oncogene serine/threonine-protein kinase (Homo sapiens)
assigned_category: false
--
molecule: Cc1ccc(NC(=O)c2ccnc(OC(F)F)c2)cc1-c1ccc2c(c1)OC1(CCOCC1)CC(=O)N2
measured_target: RAF proto-oncogene serine/threonine-protein kinase (Homo sapiens)
assigned_category: true
--
molecule: Cc1ccc(NC(=O)c2cc(C(F)(F)F)cnn2)cc1-c1ccc2c(c1)OC1(CCOCC1)CC(=O)N2
measured_target: RAF proto-oncogene serine/threonine-protein kinase (Homo sapiens)
assigned_category: true
--
molecule: Cc1ccc(NC(=O)c2nccc(C(F)(F)F)n2)cc1-c1ccc2c(c1)OC1(CCOCC1)CC(=O)N2
measured_target: RAF proto-oncogene serine/threonine-protein kinase (Homo sapiens)
assigned_category: true
--
molecule: Cc1ncc(NC(=O)c2ccnc(C(F)(F)F)c2)cc1-c1ccc2c(c1)OC1(CCOCC1)CC(=O)N2
measured_target: RAF proto-oncogene serine/threonine-protein kinase (Homo sapiens)
assigned_category: true
--
molecule: Cc1ccc(NC(=O)c2ccnc(C(F)(F)F)c2)cc1-c1ccc2c(c1)OC1(CCOCC1)CC(=O)N2C
measured_target: RAF proto-oncogene serine/threonine-protein kinase (Homo sapiens)
assigned_category: true
--
molecule: Cc1ccc(NC(=O)N2CCCC(C(F)(F)F)C2)cc1-c1ccc2c(c1)OC1(CCOCC1)CC(=O)N2 (stereo not drawn)
measured_target: RAF proto-oncogene serine/threonine-protein kinase (Homo sapiens)
assigned_category: false

API: the following record is the query input.
Asked: Determine if "Cc1ccc(NC(=O)c2ccc(C(F)(F)F)s2)cc1-c1ccc2c(c1)OC1(CCOCC1)CC(=O)N2" shows IC50 strictly lower than 10 nM.
Given back: false
